Molecular target: human A3G (APOBEC3G) (Homo sapiens, UniProt Q9HC16)
Sequence (Q9HC16 whole entry): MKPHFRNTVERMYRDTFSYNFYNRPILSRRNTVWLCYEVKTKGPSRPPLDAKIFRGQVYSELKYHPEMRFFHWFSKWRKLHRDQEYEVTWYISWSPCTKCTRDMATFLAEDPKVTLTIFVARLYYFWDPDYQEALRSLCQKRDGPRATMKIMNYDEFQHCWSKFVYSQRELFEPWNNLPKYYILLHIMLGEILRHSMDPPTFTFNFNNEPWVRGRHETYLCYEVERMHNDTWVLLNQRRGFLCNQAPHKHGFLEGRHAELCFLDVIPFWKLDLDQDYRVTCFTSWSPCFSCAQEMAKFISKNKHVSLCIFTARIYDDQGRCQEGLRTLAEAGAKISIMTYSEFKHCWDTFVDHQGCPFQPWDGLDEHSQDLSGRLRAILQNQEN
Assay: fluorescence-based ssDNA cytosine deaminase assay, A3G
Assay type: biochemical
Details: read-out: IC50 Values A3G; dose response, purified full-length A3G-mycHis
Where a name gives a salt, the structure may show the parent alone.
// returns class 0 unless IC50 is strictly below 9 µM, in which case class 1

compound	assaySystem	labelValue
CC(=O)NCCc1ccc(O)c(O)c1 [MN3, N-Acetyldopamine monohydrate]	human A3G (APOBEC3G) (Homo sapiens, UniProt Q9HC16)	class 1
NC1CCc2cc(O)c(O)cc2C1 (racemic)	human A3G (APOBEC3G) (Homo sapiens, UniProt Q9HC16)	class 1
Oc1cc2c(cc1O)C(c1ccccc1)CNCC2 (racemic) [MN15, (±)-SKF-38393 hydrochloride]	human A3G (APOBEC3G) (Homo sapiens, UniProt Q9HC16)	class 0
CN=c1nc(-c2ccccc2)n(-c2ccccc2)s1 [MN34, SCH-202676 hydrobromide]	human A3G (APOBEC3G) (Homo sapiens, UniProt Q9HC16)	class 0
O=C(O)c1ccc(-c2cccc(/C=N/NC(=O)c3cc(O)c(O)c(O)c3)c2)cc1 [BHMP-07, reference compound]	human A3G (APOBEC3G) (Homo sapiens, UniProt Q9HC16)	class 0

In plain terms, does O=C(NN=Cc1c(O)ccc2ccccc12)c1cc(O)c(O)c(O)c1 [KMMP-02 (THBNH), reference compound] come in under 9 µM for IC50? class 0

In plain terms, does CN[C@@H](C)[C@H](O)c1ccccc1 [MN25, (1R,2S)-(−)-Ephedrine] come in under 9 µM for IC50? class 1
